target: mouse DLL3 on CHO-K1-mDLL3 cells (mouse) (UniProt O88516); assay: FACS, CHO-K1-mDLL3 cells, 0.16 nM antibody
Sequence (O88516 other isoform, or with tags, fused parts or gaps limits assumed): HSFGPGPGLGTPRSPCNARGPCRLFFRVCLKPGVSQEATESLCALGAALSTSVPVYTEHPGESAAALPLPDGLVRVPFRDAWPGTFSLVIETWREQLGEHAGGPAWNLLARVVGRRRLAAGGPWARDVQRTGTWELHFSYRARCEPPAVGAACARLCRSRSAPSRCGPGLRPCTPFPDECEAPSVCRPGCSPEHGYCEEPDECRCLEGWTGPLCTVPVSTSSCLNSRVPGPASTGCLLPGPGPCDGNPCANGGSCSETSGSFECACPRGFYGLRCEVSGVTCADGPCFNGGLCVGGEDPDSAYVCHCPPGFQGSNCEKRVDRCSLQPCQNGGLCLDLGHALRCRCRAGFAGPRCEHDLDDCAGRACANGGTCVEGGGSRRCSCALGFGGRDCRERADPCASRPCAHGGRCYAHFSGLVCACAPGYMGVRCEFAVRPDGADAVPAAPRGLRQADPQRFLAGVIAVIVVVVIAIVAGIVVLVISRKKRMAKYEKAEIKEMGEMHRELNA
quantity.measured: MFI (MFI)
One number for each entry, in MFI.

| binder | quantity.measured | meas.value |
| --- | --- | --- |
| Hab015VL5VH1a-hFc (scFv, part only; not given: scFv linker and human IgG1 Fc, V domains shown, not shown: another chain or arm of the molecule; a dimerising Fc or GST; small tags and cut ends) VL: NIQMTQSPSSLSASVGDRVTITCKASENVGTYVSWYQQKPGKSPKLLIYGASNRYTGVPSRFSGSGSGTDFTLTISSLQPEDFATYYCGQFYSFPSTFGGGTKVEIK VH: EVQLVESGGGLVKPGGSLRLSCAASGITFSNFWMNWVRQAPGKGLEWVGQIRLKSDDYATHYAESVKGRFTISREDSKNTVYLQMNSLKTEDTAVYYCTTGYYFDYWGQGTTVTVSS | MFI | 393 |
| Hab009VL3aVH1-hFc (scFv, part only; not given: VL-VH linker and human IgG1 Fc, V domains shown, not shown: another chain or arm of the molecule; a dimerising Fc or GST; small tags and cut ends) VL: DIVMTQSPLSLPVTPGEPASISCRASQTISDYLHWYLQKSHQSPQLLIKYASQSISGVPDRFSGSGSGTDFTLKISRVEAEDVGVYYCQQGHSFPLTFGQGTKLEIK VH: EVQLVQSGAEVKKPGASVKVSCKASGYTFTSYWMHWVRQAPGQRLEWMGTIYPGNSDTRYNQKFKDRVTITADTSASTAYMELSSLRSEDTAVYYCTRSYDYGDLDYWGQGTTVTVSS | MFI | 345 |
| Hab015VL4VH6a-hFc (scFv, part only; not given: scFv linker and human IgG1 Fc, V domains shown, not shown: another chain or arm of the molecule; a dimerising Fc or GST; small tags and cut ends) VL: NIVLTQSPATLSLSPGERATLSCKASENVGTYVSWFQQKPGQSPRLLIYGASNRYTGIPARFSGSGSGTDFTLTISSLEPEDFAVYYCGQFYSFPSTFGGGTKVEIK VH: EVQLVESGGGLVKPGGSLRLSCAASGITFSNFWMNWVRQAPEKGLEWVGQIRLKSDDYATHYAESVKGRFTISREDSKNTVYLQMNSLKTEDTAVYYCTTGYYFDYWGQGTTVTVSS | MFI | 361 |

For every record below, what is its MFI?
1. Hab015VL4VH5a-hFc (scFv, part only; not given: VL-VH linker and human IgG1 Fc, V domains shown, not shown: another chain or arm of the molecule; a dimerising Fc or GST; small tags and cut ends) VL: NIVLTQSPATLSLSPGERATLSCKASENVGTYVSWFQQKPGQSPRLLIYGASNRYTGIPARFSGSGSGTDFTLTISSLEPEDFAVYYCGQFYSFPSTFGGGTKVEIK VH: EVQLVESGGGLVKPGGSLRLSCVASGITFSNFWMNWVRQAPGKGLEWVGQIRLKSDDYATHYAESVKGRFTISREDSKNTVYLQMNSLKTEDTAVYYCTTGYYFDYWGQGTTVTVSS
2. Hab006VL1VH4-hFc (scFv, part only; not given: VL-VH linker and human IgG1 Fc, V domains shown, not shown: another chain or arm of the molecule; a dimerising Fc or GST; small tags and cut ends) VL: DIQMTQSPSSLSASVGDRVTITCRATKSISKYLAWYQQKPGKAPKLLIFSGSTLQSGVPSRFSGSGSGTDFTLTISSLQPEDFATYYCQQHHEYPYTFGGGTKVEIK VH: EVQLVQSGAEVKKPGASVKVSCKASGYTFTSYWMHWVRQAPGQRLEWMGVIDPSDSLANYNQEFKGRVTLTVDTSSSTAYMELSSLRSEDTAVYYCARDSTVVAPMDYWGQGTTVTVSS
3. Hab006VL4VH1-hFc (scFv, part only; not given: scFv linker and human IgG1 Fc, V domains shown, not shown: another chain or arm of the molecule; a dimerising Fc or GST; small tags and cut ends) VL: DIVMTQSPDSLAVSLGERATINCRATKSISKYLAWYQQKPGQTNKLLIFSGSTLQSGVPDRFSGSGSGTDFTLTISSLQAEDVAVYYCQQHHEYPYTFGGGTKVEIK VH: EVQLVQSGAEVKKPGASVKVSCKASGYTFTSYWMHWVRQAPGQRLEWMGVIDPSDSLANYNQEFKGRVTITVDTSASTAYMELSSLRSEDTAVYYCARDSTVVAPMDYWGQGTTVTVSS
4. Hab014VL2VH1-hFc (scFv, part only; not given: scFv linker and human IgG1 Fc, V domains shown, not shown: another chain or arm of the molecule; a dimerising Fc or GST; small tags and cut ends) VL: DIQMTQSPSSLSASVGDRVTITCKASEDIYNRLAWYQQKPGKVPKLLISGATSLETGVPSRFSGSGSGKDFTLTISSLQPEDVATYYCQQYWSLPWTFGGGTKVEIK VH: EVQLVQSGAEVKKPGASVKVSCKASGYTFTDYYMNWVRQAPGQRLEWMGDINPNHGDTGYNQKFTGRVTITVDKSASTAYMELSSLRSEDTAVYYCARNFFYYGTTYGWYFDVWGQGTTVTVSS

1. 350
2. 406
3. 278
4. 204
